# Test system: Staphylococcus aureus
# TEST METHOD NOTES: Antibacterial activity against methicillin-sensitive Staphylococcus aureus 15 assessed as inhibition of bacterial growth by CLSI based micro broth double dilution method
# Format: functional
MEASURED ATTRIBUTE: MIC (µg/mL)
One number for each entry, in µg/mL.

Solved cases below.
CC[C@H]1OC(=O)[C@@](C)(F)C(=O)[C@H](C)[C@@H](O[C@@H]2O[C@H](C)C[C@H](N(C)C)[C@H]2O)[C@@](C)(OC)C[C@@H](C)C(=O)[C@H](C)[C@H]2N(CCCN(C(C)=O)c3ccnc4ccccc34)C(=O)O[C@]12C: 0.06
CC[C@H]1OC(=O)[C@@](C)(F)C(=O)[C@H](C)[C@@H](O[C@@H]2O[C@H](C)C[C@H](N(C)C)[C@H]2O)[C@@](C)(OC)C[C@@H](C)C(=O)[C@H](C)[C@H]2N(CCCN(C(=O)/C=C/c3ccccc3)c3cnc4ccccc4c3)C(=O)O[C@]12C: 1
CC[C@H]1OC(=O)[C@@](C)(F)C(=O)[C@H](C)[C@@H](O[C@@H]2O[C@H](C)C[C@H](N(C)C)[C@H]2O)[C@@](C)(OC)C[C@@H](C)C(=O)[C@H](C)[C@H]2N(CCCN(C)c3ccnc4ccccc34)C(=O)O[C@]12C: 0.5

Proceeding to the next compound to report its MIC.
// MIC value for CC[C@H]1OC(=O)[C@H](C)[C@@H](O[C@H]2C[C@@](C)(OC)[C@@H](O)[C@H](C)O2)[C@H](C)[C@@H](O[C@@H]2O[C@H](C)C[C@H](N(C)C)[C@H]2O)[C@](C)(OC)C[C@@H](C)C(=O)[C@H](C)[C@@H](O)[C@]1(C)O [CLARITHROMYCIN] : 0.25

---

# Test system: Staphylococcus aureus
# TEST METHOD NOTES: Antibacterial activity against methicillin-sensitive Staphylococcus aureus ATCC 29213 assessed as inhibition of bacterial growth by CLSI based micro broth double dilution method
# Assay type: functional
MEASURED ATTRIBUTE: MIC (µg/mL)
Numbers only, in µg/mL.

Solved cases below.
CC[C@H]1OC(=O)[C@@](C)(F)C(=O)[C@H](C)[C@@H](O[C@@H]2O[C@H](C)C[C@H](N(C)C)[C@H]2O)[C@@](C)(OC)C[C@@H](C)C(=O)[C@H](C)[C@H]2N(CCCN(C(C)=O)c3cnc4ccccc4c3)C(=O)O[C@]12C: 0.25
CC[C@H]1OC(=O)[C@@](C)(F)C(=O)[C@H](C)[C@@H](O[C@@H]2O[C@H](C)C[C@H](N(C)C)[C@H]2O)[C@@](C)(OC)C[C@@H](C)C(=O)[C@H](C)[C@H]2N(CCCN(C(=O)c3ccccc3)c3ccnc4ccccc34)C(=O)O[C@]12C: 1

// MIC value for CC[C@H]1OC(=O)[C@@](C)(F)C(=O)[C@H](C)[C@@H](O[C@@H]2O[C@H](C)C[C@H](N(C)C)[C@H]2O)[C@@](C)(OC)C[C@@H](C)C(=O)[C@H](C)[C@H]2N(CCCN(C)c3ccnc4ccccc34)C(=O)O[C@]12C : 0.5

---

# Test system: Staphylococcus aureus
# TEST METHOD NOTES: Antibacterial activity against methicillin-sensitive Staphylococcus aureus 15 assessed as inhibition of bacterial growth by CLSI based micro broth double dilution method
# Assay type: functional
MEASURED ATTRIBUTE: MIC (µg/mL)
One number for each entry, in µg/mL.

CC[C@H]1OC(=O)[C@@](C)(F)C(=O)[C@H](C)[C@@H](O[C@@H]2O[C@H](C)C[C@H](N(C)C)[C@H]2O)[C@@](C)(OC)C[C@@H](C)C(=O)[C@H](C)[C@H]2N(CCCN(C(=O)CCc3ccccc3)c3cnc4ccccc4c3)C(=O)O[C@]12C: 1

For each of the compounds below, state MIC.
1. CC[C@H]1OC(=O)[C@@](C)(F)C(=O)[C@H](C)[C@@H](O[C@@H]2O[C@H](C)C[C@H](N(C)C)[C@H]2O)[C@@](C)(OC)C[C@@H](C)C(=O)[C@H](C)[C@H]2N(CCCN(C(=O)/C=C/c3ccccc3)c3ccnc4ccccc34)C(=O)O[C@]12C
2. CC[C@H]1OC(=O)[C@H](C)C(=O)[C@H](C)[C@@H](O[C@@H]2O[C@H](C)C[C@H](N(C)C)[C@H]2O)[C@](C)(OC)C[C@@H](C)C(=O)[C@H](C)[C@H]2N(CCCCn3cnc(-c4cccnc4)c3)C(=O)O[C@]12C [TELITHROMYCIN]
3. CC[C@H]1OC(=O)[C@@](C)(F)C(=O)[C@H](C)[C@@H](O[C@@H]2O[C@H](C)C[C@H](N(C)C)[C@H]2O)[C@@](C)(OC)C[C@@H](C)C(=O)[C@H](C)[C@H]2N(CCCN(Cc3ccccc3)c3cnc4ccccc4c3)C(=O)O[C@]12C

1
0.25
0.5

Origin of the recorded values: ChEMBL document CHEMBL5236651
